Taken from paper PMC12239973.

# System: human C5a release
# Assay Info: C5a release in the fluid phase of human serum with nanoparticles, ELISA
# Type: biochemical
# Run Parameters: read-out: C5a, IC50; mRNA LNPs; donor F46 (table line matched to Fig. 2C)
Measurement Label: IC50 (µM)
Your answer is read as µM, so omit the unit and give the number.

What value of IC50 has been recorded for this entry: CC(=O)c1nn(CC(=O)N2C[C@H](F)C[C@H]2C(=O)Nc2cccc(Br)n2)c2ccc(-c3cnc(C)nc3)cc12 7.98

----------
# Test system: human C3 deposition
# Assay Info: C3 deposition on nanoparticles in human serum, C3 dot-blot immunoassay
# Format: biochemical
# Run Parameters: read-out: C3, IC50; CLIO NWs; healthy donor serum
Measurement Label: pIC50
pIC50 (log units): -log10 of the concentration in mol/L.

Request - read-out pIC50 | tested on human C3 deposition | compound CC(=O)c1nn(CC(=O)N2C[C@H](F)C[C@H]2C(=O)Nc2cccc(Br)n2)c2ccc(-c3cnc(C)nc3)cc12 [Danicopan, danicopan] 4.97

----------
# System: human C5a release
# Assay Info: C5a release in the fluid phase of human serum with nanoparticles, ELISA
# Type: biochemical
# Run Parameters: read-out: C5a, IC50; CLIO NWs; human serum
Measurement Label: pIC50
Bear in mind: pIC50 is minus log10 of a mol/L concentration; give just that figure.

# query: pIC50 of entry CC(=O)c1nn(CC(=O)N2C[C@H](F)C[C@H]2C(=O)Nc2cccc(Br)n2)c2ccc(-c3cnc(C)nc3)cc12 8.16

----------
# Tested on: human C3 deposition
# Assay Info: C3 deposition on nanoparticles in human serum, C3 dot-blot immunoassay
# Format: biochemical
# Run Parameters: read-out: C3, IC50; Onivyde; healthy donor serum
Measurement Label: IC50 (µM)
Output spec: scalar in µM, unitless text.

Returns the measured IC50 for the input compound. Input: CC(=O)c1nn(CC(=O)N2C[C@H](F)C[C@H]2C(=O)Nc2cccc(Br)n2)c2ccc(-c3cnc(C)nc3)cc12 28.1
